Reference source for all entries: patent US20210292330A1

# Test target: KRAS 4B G12C protein (Homo sapiens, UniProt P01116, G12C)
# Construct: This protein contained 188 amino acids in total, including an N-terminal 6-Histidine tag; made in house; host or cells: E. coli BL21
# Assay explanation: In vitro covalent adduct formation (CAF) assay by LC-MS
# Format: binding
# Run parameters: 60 minutes; compound 10 μM, protein 5 μM, 22° C.; percentage of protein bound by the compound
Experimental readout: CAF (10 minutes/60 minutes) at 10 micromolar: 60 minutes (%/ 0%)
// return numeric value only (unit: %/ 0%, not printed)

Requested field: CAF (10 minutes/60 minutes) at 10 micromolar: 60 minutes. Item: C#Cc1ccccc1CN1Cc2nc(OC[C@@H]3CCCN3C)nc(N3CCN(C(=O)C=C)[C@@H](CC#N)C3)c2C1 [1-235]
0

Now give it for C=CC(=O)N1CCN(c2nc(OC[C@@H]3CCCN3C)nc3c2CN(Cc2cc(C(F)(F)F)ccc2C)C3)[C@@H](C)C1 [1-15] too.
0

---

Exercise: state measured CAF (10 minutes/60 minutes) at 10 micromolar: 10 minutes for each of the compounds provided.
# Test target: KRAS 4B G12C protein (Homo sapiens, UniProt P01116, G12C)
# Construct: This protein contained 188 amino acids in total, including an N-terminal 6-Histidine tag; made in house; host or cells: E. coli BL21
# Assay explanation: In vitro covalent adduct formation (CAF) assay by LC-MS
# Type: binding
# Run parameters: 10 minutes; compound 10 μM, protein 5 μM, 22° C.; percentage of protein bound by the compound
// return numeric value only (unit: %/ 0%, not printed)

Requested field: CAF (10 minutes/60 minutes) at 10 micromolar: 10 minutes. Item: C=CC(=O)N1CCN(c2nc(O[C@@H]3CN(C)C[C@H]3OC)nc3c2CN(C2CCc4ccccc42)C3)C2COCC21 (stereo partly drawn)
0

Now give it for `C=C(F)C(=O)N1CCN(c2nc(OC[C@@H]3CCCN3C)nc3c2CN(Cc2c[nH]nc2C)C3)C[C@@H]1CC#N` too.
0

Now give it for `C=CC(=O)N1CCN(c2nc(OC[C@@H]3CCCN3C)nc3c2CN(Cc2cc(F)cc(F)c2)C3)[C@@H](C)C1` too.
0

---

Exercise: state measured CAF (10 minutes/60 minutes) at 10 micromolar: 60 minutes for each of the compounds provided.
# Test target: KRAS 4B G12C protein (Homo sapiens, UniProt P01116, G12C)
# Construct: This protein contained 188 amino acids in total, including an N-terminal 6-Histidine tag; made in house; host or cells: E. coli BL21
# Assay explanation: In vitro covalent adduct formation (CAF) assay by LC-MS
# Type: binding
# Run parameters: 60 minutes; compound 10 μM, protein 5 μM, 22° C.; percentage of protein bound by the compound
// return numeric value only (unit: %/ 0%, not printed)

Lab note: need CAF (10 minutes/60 minutes) at 10 micromolar: 60 minutes for C=CC(=O)N1C2COCC1CN(c1nc(OC[C@@H]3CCCN3C)nc3c1CN(Cc1cc(OC)ccc1Cl)C3)C2 [1-114] on KRAS 4B G12C protein (Homo sapiens, UniProt P01116, G12C), anyone have it?
0

Now give it for C=CC(=O)N1CCN(c2nc(OC[C@@H]3CCCN3C)nc3c2CN(C2CCc4ccccc42)C3)C[C@@H]1C[S+](C)[O-] (stereo partly shown) [1-209] too.
0
